target: coagulation factor IXa (FIXa) (UniProt P00740;P00740 P00740:47-191,P00740:227-461); assay: filter; double-filter nitrocellulose
Sequence (P00740 47-191, chain 1 of 2): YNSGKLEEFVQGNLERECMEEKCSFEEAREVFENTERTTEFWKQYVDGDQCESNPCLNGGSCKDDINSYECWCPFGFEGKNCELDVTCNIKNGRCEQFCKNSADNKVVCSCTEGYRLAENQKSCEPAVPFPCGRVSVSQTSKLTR
Sequence (P00740 227-461, chain 2 of 2): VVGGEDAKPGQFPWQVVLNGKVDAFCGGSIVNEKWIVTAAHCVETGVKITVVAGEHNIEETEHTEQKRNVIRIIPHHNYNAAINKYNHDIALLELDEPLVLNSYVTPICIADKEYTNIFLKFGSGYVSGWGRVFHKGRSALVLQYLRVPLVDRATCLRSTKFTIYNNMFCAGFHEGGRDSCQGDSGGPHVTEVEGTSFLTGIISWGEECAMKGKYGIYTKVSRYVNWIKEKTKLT
Recorded measurements of Kd, one per entry
measured-property: Kd (nM)

binder	experimental-value
9.27 (ssRNA, 2'-F pyrimidines) RNA: GGGAGAGAGGAAGAGGGAUGGGUAAUAACUGUAUGGUGAACCCACCCAAACUCCCAUGGCUACAUAACCCAGAGGUCGAUAGUACUGGAUCCCCCC	1.64
9.19 (ssRNA, 2'-F pyrimidines) RNA: GGGAGAGAGGAAGAGGGAUGGGACCAUAACGACUACUCGUGAAUCCCACCAUCAGCGCACAACAUAACCCAGAGGUCGAUAGUACUGGAUCCCCCC	0.707
9.25 (ssRNA, 2'-F pyrimidines) RNA: GGGAGAGAGGAAGAGGGAUGGGGACCAUAACUCUAACGGGUGAAUCCCGCAUCUCGACAAUACAUAACCCAGAGGUCGAUAGUACUGGAUCCCC	0.49
9.28 (ssRNA, 2'-F pyrimidines) RNA: GGGAGAGAGGAAGAGGGAUGGGCGCCAUACGCACAUUGCUGCAUCGCCUUCCCGUAAGAACCAUAACCCAGAGGUCGAUAGUACUGGAUCCCCCC	0.592
9.20 (ssRNA, 2'-F pyrimidines) RNA: GGGAGAGAGGAAGAGGGAUGGGGACUAUACCGGCAAUCGUGCAUCCCCUGGACCUAACAAUACAUAACCCAGAGGUCGAUAGUACUGGAUCCCCCC	0.49
9.26 (ssRNA, 2'-F pyrimidines) RNA: GGGAGAGAGGAAGAGGGAUGGGUGAUAACCACUCUGGUGAACCCCUCCCGACUUGCUCGCACAUAACCCAGAGGUCGAUAGUACUGGAUCCCCCC	0.49

Values were extracted from patent US20030175703.
